# Lookup of reported Ratio IC50 keyed by entry
ASSAY COMMENT: Selectivity ratio, ratio of IC50 for inhibition of equine serum BuChE to IC50 for inhibition of electric eel AChE
Give your answer as a number; write no unit.

Consider the following illustrative entries.
Problem: Can you look up the measured Ratio IC50 of CCOP(=O)(OCC)C(Nc1ccc(C(=O)O)cc1)c1ccc(OCc2nc3ccccc3c(=O)n2-c2ccc(F)cc2)c(OC)c1 (centres undefined) for me?
Result: 70.1

Problem: Can you look up the measured Ratio IC50 of CCOP(=O)(OCC)C(Nc1ccccc1C#N)c1ccc(OCc2nc3ccccc3c(=O)n2-c2ccc(F)cc2)c(OC)c1 (centres undefined) for me?
Result: 34.2

Problem: Can you look up the measured Ratio IC50 of CCOP(=O)(OCC)C(Nc1ccccc1C(C)=O)c1ccc(OCc2nc3ccccc3c(=O)n2-c2ccc(F)cc2)c(OC)c1 (centres undefined) for me?
Result: 31.9

Next item in the queue.
Problem: Can you look up the measured Ratio IC50 of CCOP(=O)(OCC)C(Nc1cc(C)cc(C)c1)c1ccc(OCc2nc3ccccc3c(=O)n2-c2ccc(F)cc2)c(OC)c1 (centres undefined) for me?
Result: 56.8

====

The reader will find pIC50 measurements below, all made with Acetylcholinesterase (Electrophorus electricus).
Sequence (O42275 whole entry): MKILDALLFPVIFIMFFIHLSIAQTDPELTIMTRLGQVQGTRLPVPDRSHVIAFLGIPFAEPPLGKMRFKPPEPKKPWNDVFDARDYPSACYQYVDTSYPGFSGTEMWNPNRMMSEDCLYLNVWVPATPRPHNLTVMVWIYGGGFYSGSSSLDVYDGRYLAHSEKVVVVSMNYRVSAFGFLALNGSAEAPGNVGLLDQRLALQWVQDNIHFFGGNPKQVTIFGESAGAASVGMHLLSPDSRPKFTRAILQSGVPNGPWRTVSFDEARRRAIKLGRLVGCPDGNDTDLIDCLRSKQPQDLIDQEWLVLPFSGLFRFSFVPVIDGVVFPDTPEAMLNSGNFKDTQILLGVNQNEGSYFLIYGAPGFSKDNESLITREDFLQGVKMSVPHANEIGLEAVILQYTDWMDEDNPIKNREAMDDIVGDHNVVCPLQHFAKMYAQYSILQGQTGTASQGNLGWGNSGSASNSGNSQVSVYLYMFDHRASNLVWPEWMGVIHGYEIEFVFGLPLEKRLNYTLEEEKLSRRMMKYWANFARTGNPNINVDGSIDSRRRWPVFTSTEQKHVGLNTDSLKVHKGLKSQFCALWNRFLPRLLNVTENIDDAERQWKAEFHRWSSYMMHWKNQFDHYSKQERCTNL
In plain terms, pIC50 is the concentration in mol/L turned into minus its base-10 logarithm.

Problem: Find the measured pIC50: item CCOP(=O)(OCC)C(Nc1ccccc1C)c1ccc(OCc2nc3ccccc3c(=O)n2-c2ccc(F)cc2)c(OC)c1 (centres undefined) , target or system Acetylcholinesterase (Electrophorus electricus).
Result: 6.41

Problem: Find the measured pIC50: item CCOP(=O)(OCC)C(Nc1ccccc1CC)c1ccc(OCc2nc3ccccc3c(=O)n2-c2ccc(F)cc2)c(OC)c1 (centres undefined) , target or system Acetylcholinesterase (Electrophorus electricus).
Result: 6.27

Problem: Find the measured pIC50: item CCOP(=O)(OCC)C(Nc1ccccc1C#N)c1ccc(OCc2nc3ccccc3c(=O)n2-c2ccc(F)cc2)c(OC)c1 (centres undefined) , target or system Acetylcholinesterase (Electrophorus electricus).
Result: 6.49

Next item in the queue.
Problem: Find the measured pIC50: item CCOP(=O)(OCC)C(Nc1ccc(Br)cc1)c1ccc(OCc2nc3ccccc3c(=O)n2-c2ccc(F)cc2)c(OC)c1 (centres undefined) , target or system Acetylcholinesterase (Electrophorus electricus).
Result: 6.31
